System: 323965-272-R-J2-PDC complex spheroid viability;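 also: spheroids exposed to agents for seven days before readout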
Assay: Anticancer human tumor 323965-272-R-J2-PDC patient-derived pancreatic carcinoma cell line growth inhibition [CLK]; active = viability on the fitted dose curve at most 10% of control; inactive = the rest
Settings: second compound 1 µM; first compound 0.0316 µM
Respond with a class label; see y = active, n = inactive

Q: What outcome does the record of this test show for CCN1CCN(Cc2ccc(Nc3ncc(F)c(-c4cc(F)c5nc(C)n(C(C)C)c5c4)n3)nc2)CC1 + CNC(=O)c1ccc(Nc2nc(OC3CCCC3)c3c(-c4ccc5nc(C)oc5c4)c[nH]c3n2)c(OC)c1 ?
Result: n

Q: What outcome does the record of this test show for C=C(F)C(=O)N1CCN(c2nc(OCC3CCCN3C)nc3c2CCN(c2cccc4cccc(Cl)c24)C3)CC1CC#N (stereo not given) + CNC(=O)c1ccc(Nc2nc(OC3CCCC3)c3c(-c4ccc5nc(C)oc5c4)c[nH]c3n2)c(OC)c1 ?
Result: n

Q: What outcome does the record of this test show for CC(=O)O[C@H]1C(=O)[C@@]2(C)[C@H]([C@H](OC(=O)c3ccccc3)[C@]3(O)C[C@H](OC(=O)[C@H](O)[C@@H](NC(=O)c4ccccc4)c4ccccc4)C(C)=C1C3(C)C)[C@]1(OC(C)=O)CO[C@@H]1C[C@@H]2O + CNC(=O)c1ccc(Nc2nc(OC3CCCC3)c3c(-c4ccc5nc(C)oc5c4)c[nH]c3n2)c(OC)c1 ?
Result: n

Q: What outcome does the record of this test show for CC(CO)NC(=O)c1cc(-c2ccc(Cl)cc2)nn(-c2cnn(C)c2)c1=O (stereo not given) + CN1CCN(c2cc(C(=O)Nc3cc4cc(-c5cnn(C)c5)ccc4cn3)ccn2)CC1 ?
Result: y

Q: What outcome does the record of this test show for O=C(c1cc(Cc2n[nH]c(=O)c3ccccc23)ccc1F)N1CCN(C(=O)C2CC2)CC1 + CN1CCN(c2cc(C(=O)Nc3cc4cc(-c5cnn(C)c5)ccc4cn3)ccn2)CC1 ?
Result: y

Numbers sourced from PubChem BioAssay AID2060619.
